// provenance: patent US10556936B2

- Tested on: PBMC cells obtained from mite allergic patients and non-allergics
- procedure summary: Ex vivo stimulation of PBMC: cytokine production (IFN-gamma, IL-9, IL-10, IL-17, IL-31)
- Type: cell-based, human
- stated conditions: non-allergic individuals; IL-17
property label: % non-allergic individuals with cytokine production in ex-vivo T cell assay IL-17 (%)
# unit: % | format: bare number

Using known records, supply % non-allergic individuals with cytokine production in ex-vivo T cell assay IL-17 for A024: house dust mite protein; SEQ ID NO: 11 (Der f), 12 (Der p), 318 (Blo t) (protein) MSISAHGGGLVNGIAGMENKFTVFTSGKPVSGLTVAFEGPTKPEINFNSTKDGSVDVGYIPKAGGQYKIHIKYEGKEIVGSPFKCNISGDESTHRKLTEKVKVGGPNISTGKVNQDNQLTIDCKEAGITGGISFAMEGPAKVEVSFRNNNDGTITVIYKPPTPGDYKLHLKFNDIHLPGSPYPIVVSA
0
